target system: PTGER4 (EP4) (Homo sapiens, UniProt P35408)
Sequence (P35408 whole entry): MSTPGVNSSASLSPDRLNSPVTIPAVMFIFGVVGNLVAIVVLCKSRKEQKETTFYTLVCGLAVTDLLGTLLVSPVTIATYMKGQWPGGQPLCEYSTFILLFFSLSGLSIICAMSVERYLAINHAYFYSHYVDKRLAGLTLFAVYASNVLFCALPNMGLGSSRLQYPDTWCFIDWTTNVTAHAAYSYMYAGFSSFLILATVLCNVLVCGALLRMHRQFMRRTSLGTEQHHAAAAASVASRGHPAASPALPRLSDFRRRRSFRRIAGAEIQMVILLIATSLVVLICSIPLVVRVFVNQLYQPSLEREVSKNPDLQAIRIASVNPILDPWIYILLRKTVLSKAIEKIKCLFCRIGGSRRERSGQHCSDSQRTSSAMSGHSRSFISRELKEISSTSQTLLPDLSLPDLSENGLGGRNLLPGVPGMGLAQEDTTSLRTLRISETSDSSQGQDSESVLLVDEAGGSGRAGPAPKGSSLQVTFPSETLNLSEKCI
protocol summary: hEP4 b-arrestin assay (PathHunter HEK 293 PTGER4 b-arrestin cells)
particulars: antagonistic activity, beta-arrestin assay; read-out: hEP4 b-arr IC50
readout type: pIC50
Note on pIC50: it is the negative log10 of concentration, concentration in mol/L.

### Prompt May I ask what pIC50 has been recorded for `CSc1cc(-c2cc(NCCc3c(C)oc4ccccc34)ncn2)cc(F)c1C(=O)O` ?
### Response 5.44

### Prompt Cool, now `CCOc1cc(-c2cc(NCCc3c(C)oc4c(Cl)cccc34)ncn2)ccc1OCC(=O)O`
### Response 6.54

### Prompt `COc1ccc(F)c2c(CCNc3cc(-c4cc(F)c(C(=O)O)c(OC5CCC5)c4)ncn3)c(C)sc12` ?
### Response 7.17

### Prompt Now give it for `Cc1sc2c(C)cc(F)cc2c1CCNc1cc(-c2ccc(C(=O)O)c(O)c2)ncn1` too.
### Response 5.98

### Prompt Try `CCCc1cc(-c2cc(NCCc3c(C#N)sc4c(C)cc(F)cc34)ncn2)ccc1CC(=O)O` next.
### Response 7.72

* * *

target system: PTGER4 (EP4) (Homo sapiens, UniProt P35408)
protocol summary: hEP4 b-arrestin assay (PathHunter HEK 293 PTGER4 b-arrestin cells)
particulars: antagonistic activity, beta-arrestin assay; read-out: hEP4 b-arr IC50
Procedure: The antagonistic activities of the compounds of formula (I) on the EP2 and EP4 receptors are determined in accordance with the following experimental method. […] PathHunter Glo Detection Kit components are thawed and mix according to manufacturer's instructions: 1 part Galacton Star Substrate with 5 parts Emerald II™ Solution, and 19 parts of PathHunter Cell Assay Buffer, respectively. […] Luminescence counts are read on a BMG Fluostar Optima reader according to manufacturer's instructions. […]
Exercise: state measured pIC50 for each of the compounds provided.
// pIC50 is dimensionless: -log10 of concentration (M)

### Prompt For the compound shown here, `CCOc1cc(-c2cc(NCCc3c(C)oc4c(C)cc(Cl)cc34)ncn2)ccc1C(=O)O` , give the reported pIC50.
### Response 6.28

### Prompt Another: `COc1cc(F)c(F)c2c(CCNc3cc(-c4ccc(C(=O)O)c(OC5CCC5)c4)ncn3)c(C)oc12`
### Response 6.47

### Prompt Field entry: `CCOc1cc(-c2cc(NCCc3c(C)sc4c(C)c(F)ccc34)ncn2)ccc1CC(=O)O`
### Response 6.18

### Prompt Could you do the same for `CCCc1cc(-c2cc(NCCc3c(C#N)sc4c(C)cc(F)cc34)ncn2)ccc1C(=O)O` , please?
### Response 7.47

### Prompt And for `Cc1cc(-c2cc(NCCc3c(C)sc4c(C)cccc34)ncn2)sc1C(=O)O` ?
### Response 6.69

### Prompt Item: `Cc1sc2c(C)cc(F)cc2c1CCNc1cc(-c2cc3cccc(C(=O)O)c3s2)ncn1`
### Response 6.34

### Prompt What do you get for `CCOc1cc(-c2cc(NCCc3c(C)sc4c(C)cc(F)cc34)ncn2)sc1C(=O)NS(N)(=O)=O` ?
### Response 7.59

### Prompt Also `CCOc1cc(-c2cc(NCCc3c(C)sc4ccccc34)ncn2)ccc1C(=O)O` , if possible.
### Response 5.65
